All figures here come from BindingDB's records for patent US20250034169.

- subject of test: GTPase KRas [G12D]/RAF proto-oncogene serine/threonine-protein kinase (Homo sapiens, UniProt P01116+P04049, G12D)
- assay summary: KRAS G12D/cRAF Binding Assay
# pIC50 per entry
Answer as the number alone; pIC50 is minus log10 of concentration in mol/L.

Before answering, review these 3 worked examples.
[[record]]
given_smiles = "C#Cc1c(F)ccc2cc(O)cc(-c3nc(C#C)c4c(N5C6CCCC5CC6)nc(OCC5(CN6CCCCC6)CC5)nc4c3F)c12"
property_name = "pIC50"
observed_result = 8.37

[[record]]
given_smiles = "C#Cc1c(F)ccc2cc(O)cc(-c3nc(C#CC4CCCC4)c4c(N5CC6CCC(C6)C5)nc(OC[C@@]56CCCN5C[C@H](F)C6)nc4c3F)c12"
property_name = "pIC50"
observed_result = 7.95

[[record]]
given_smiles = "C#Cc1c(F)ccc2cc(O)cc(-c3nc(C#C)c4c(N5CC6CCC(C6)C5)nc(OCC5CCCC5)nc4c3F)c12"
property_name = "pIC50"
observed_result = 7.73


In the following, a different molecule is considered.
Can you share its pIC50? I mean this molecule: `C#Cc1c(F)ccc2cc(O)cc(-c3nc(C#C)c4c(N5CC6CCC(C6)C5)nc(OC[C@H]5CCCN5C)nc4c3F)c12`
7.72
